Where these numbers come from: patent US8383637B2

Tgt: β-secretase(BACE) (Homo sapiens)
Construct: purchased Panvera
Test name: BACE FS1% Inhibition Assay
Assay type: biochemical
Measurement parameters: 3 μM test compound; FS1 substrate
Param threshold (60%) applies to % Inhibition (FS) 3 μM; output T when value >= threshold, F when value < threshold.

NC1=Nc2ccc(Oc3ccccc3)cc2CN1Cc1cccc(CNC(=O)C2CCCCC2)c1	F

Task: // inclusive: % Inhibition (FS) 3 μM at least 60%? input: CN(C(=O)c1cccc(CN2Cc3cc(-c4ccc5[nH]ccc5c4)ccc3N=C2N)c1)C1CCCCC1
Output: F

Task: Please do the same for NC1=Nc2ccc(Oc3ccccc3)cc2CN1C(CNC(=O)CC1CCCC1)C1CCCCC1 (centres unmarked) as well.
Output: T

Task: # repeat for CCCCC(CC)C(=O)NCCN1Cc2cc(-c3ccccc3Cl)ccc2N=C1N (centres unmarked)
Output: T

Task: Field entry: COc1cccc(OC)c1Oc1ccc2c(c1)CN(Cc1cccc(C(=O)N(C)C3CCCCC3)c1)C(N)=N2
Output: F

Task: Please do the same for COc1ccc(Sc2ccc3c(c2)CN(Cc2cccc(C(=O)N(C)C4CCCCC4)c2)C(N)=N3)cc1OC as well.
Output: F

Task: Thanks! And CC1CCC(N(C(=O)c2cccc(CN3Cc4cc(Oc5ccccc5)ccc4N=C3N)c2)C2CCC(C)CC2)CC1 (centres unmarked) ?
Output: F

Task: Another compound to check: NC1=Nc2ccc(-c3ccccc3Cl)cc2CN1CCNC(=O)C1CCCC1
Output: T

###

Tgt: β-secretase(BACE) (Homo sapiens)
Construct: purchased Panvera
Test name: BACE FS1% Inhibition Assay
Assay type: biochemical
Measurement parameters: 1 μM test compound; FS1 substrate; read-out: % Inhibition (FS) 1 μM
Assay endpoint: inhibition at 1 µM (%)
Give a bare numeral; the unit % is implied.

Use the examples below as a reference point.
CN(C(=O)c1cccc(CN2Cc3cc(-c4c(Cl)cccc4Cl)ccc3N=C2N)c1)C1CCCCC1	66
NC1=Nc2ccc(Oc3ccccc3)cc2CN1C(CNC(=O)C(c1ccccc1)c1ccccc1)C1CCCCC1 (centres unmarked)	46
CN(C(=O)CC[C@@H](C1CCCCC1)N1Cc2cc(Oc3ccccc3)ccc2N=C1N)C1CCOCC1	101

Task: Request the reported inhibition at 1 µM associated with CC(C)CCC(=O)NC[C@@H](C(C)C)N1Cc2cc(Oc3ccccc3)ccc2N=C1N
Output: 119

Task: Input CN(C(=O)c1cccc(CN2Cc3cc(Oc4cccc(NS(=O)(=O)c5ccccc5)c4)ccc3N=C2N)c1)C1CCCCC1
Output: 30

Task: Proceed to NC1=Nc2ccc(Oc3ccccc3)cc2CN1CCNC(=O)C1(c2ccc(Cl)cc2)CCCC1
Output: 96

Task: Another molecule: COc1cccc(F)c1-c1ccc2c(c1)CN(CCNC(=O)C1CCCCC1)C(N)=N2
Output: 77

Task: # repeat for NC1=Nc2ccc(Oc3ccccc3)cc2CN1CCNC(=O)NC12CC3CC(CC(C3)C1)C2
Output: 62

Task: Subsequent entry: CN(C(=O)c1cccc(CN2Cc3cc(-c4ccccc4)ccc3N=C2N)c1)C1CCCCC1
Output: 113

Task: Could you do the same for CN(C(=O)c1cccc(CN2Cc3cc(-c4ccccc4C#N)ccc3N=C2N)c1)C1CCCCC1 , please?
Output: 60

Task: Okay, and Cc1ccccc1Sc1ccc2c(c1)CN(Cc1cccc(C(=O)N(C)C3CCCCC3)c1)C(N)=N2 ?
Output: 32

Task: Another: CC(C)OC(=O)NCCN1Cc2cc(Oc3ccccc3)ccc2N=C1N
Output: 72

Task: Follow-up item: CCCC(CCC)C(=O)NCC(C1CCCCC1)N1Cc2cc(Oc3ccccc3)ccc2N=C1N (centres unmarked)
Output: 72

Task: Again, but for COc1cccc(-c2ccc3c(c2)CN(Cc2cccc(C(=O)N(C)C4CCCCC4)c2)C(N)=N3)c1
Output: 72

###

Measured inhibition at 0.3 µM of individual entries
Tgt: β-secretase(BACE) (Homo sapiens, UniProt P56817)
Construct: purchased Panvera
Sequence (P56817 46-501): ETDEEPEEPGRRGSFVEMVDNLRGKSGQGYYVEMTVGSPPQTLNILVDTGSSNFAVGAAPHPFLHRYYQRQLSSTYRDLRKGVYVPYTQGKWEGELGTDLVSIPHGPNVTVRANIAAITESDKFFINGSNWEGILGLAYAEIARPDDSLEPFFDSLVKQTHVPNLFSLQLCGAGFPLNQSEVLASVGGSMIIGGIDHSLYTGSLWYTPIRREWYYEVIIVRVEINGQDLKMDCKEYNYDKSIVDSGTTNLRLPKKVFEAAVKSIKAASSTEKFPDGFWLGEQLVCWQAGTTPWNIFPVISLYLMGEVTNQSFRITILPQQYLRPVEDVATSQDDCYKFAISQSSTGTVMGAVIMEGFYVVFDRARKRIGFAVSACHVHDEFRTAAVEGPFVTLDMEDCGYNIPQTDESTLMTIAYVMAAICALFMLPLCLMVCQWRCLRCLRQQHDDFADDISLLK
Test name: BACE FS1% Inhibition Assay
Assay type: biochemical
Measurement parameters: 0.3 μM test compound; FS1 substrate; read-out: % Inhibition (FS)
Return type: number; implicit unit %.

In the examples that follow, each entry is paired with its recorded inhibition at 0.3 µM.
CN(CCC#N)C(=O)CC[C@@H](C1CCCCC1)N1Cc2cc(-c3ccccc3F)ccc2N=C1N [Compound 725]	33
CN(C(=O)CCC(C1CCCCC1)N1Cc2cc(Oc3ccccc3)ccc2N=C1N)C1CCC(O)CC1 (stereo not drawn) [Compound 712]	39
COC(=O)[C@H]1CC[C@@H](N(C)C(=O)CC[C@@H](C2CCOCC2)N2Cc3cc(Oc4ccccc4)ccc3N=C2N)CC1 [Compound 744]	91
CCCN1Cc2cc(Oc3cccc(NCc4ccc(C)cc4)c3)ccc2N=C1N [Compound 729]	33
COC(=O)[C@@H](COCc1ccccc1)N(C)C(=O)CC[C@@H](C1CCCCC1)N1Cc2cc(Oc3ccccc3)ccc2N=C1N [Compound 779]	102
CC(C)(C)OC[C@@H](NC(=O)CC[C@@H](C1CCOCC1)N1Cc2cc(Oc3ccccc3)ccc2N=C1N)C(=O)O [Compound 774]	122
CN(C(=O)CC[C@@H](C1CCCCC1)N1Cc2cc(Oc3ccccc3)ccc2N=C1N)C1CCC(C(=O)O)CC1 (stereo partly drawn) [Compound 714]	100
NC1=Nc2ccc(Oc3ccccc3)cc2CN1[C@@H](CCC(=O)N(CCO)[C@H]1CC[C@@H](C(=O)O)CC1)C1CCCCC1 [Compound 749]	113
CN(C(=O)CC[C@@H](C1CCCCC1)N1Cc2cc(Oc3ccccc3)ccc2N=C1N)[C@H]1CC[C@@H](C(N)=O)CC1 [Compound 764]	87
CN(C(=O)CC[C@@H](C1CCCCC1)N1Cc2cc(Oc3ccccc3)ccc2N=C1N)[C@H]1CC[C@H](C(=O)O)CC1 [Compound 740]	82

Task: Please look up its inhibition at 0.3 µM: CN(C(=O)CC[C@@H](C1CCOCC1)N1Cc2cc(Oc3ccccc3)ccc2N=C1N)[C@H](COCc1ccccc1)C(=O)O [Compound 784]
Output: 107

Task: What do we get for NC1=Nc2ccc(Oc3ccccc3)cc2CN1[C@@H](CCC(=O)N(Cc1ccncc1)C1CCCCC1)C1CCCCC1 [Compound 789] ?
Output: 80

###

Tgt: β-secretase(BACE) (Homo sapiens)
Construct: purchased Panvera
Test name: BACE FS1% Inhibition Assay
Format: biochemical
Measurement parameters: 3 μM test compound; FS1 substrate
Protocol: BACE FS1% Inhibition Assay The following reagents were used in this assay: sodium acetate, PEG8000 (Sigma), DMSO, HEPES, FS1 substrate [[…]] […] The FS1-substrate stock solution was prepared in DMSO as a 10 mg/mL solution. The FS1-substrate working solution was prepared by diluting the 10 mg/mL stock solution with substrate assay buffer to a final concentration of 300 μg/mL. […] For test compounds, % inhibition was determined at each concentration as follows: [formula]
# label = yes (1) if % Inhibition (FS) 3 μM >= 50% else no (0)

NC1=Nc2ccc(-c3ccccc3Cl)cc2CN1CCNC(=O)C1CCC1 [Compound 649]	yes (1)
COc1ccc(-c2nc3ccccc3s2)c(Oc2ccc3c(c2)CN(Cc2cccc(C(=O)N(C)C4CCCCC4)c2)C(N)=N3)c1 [Compound 469]	no (0)
CN(C(=O)c1cccc(CN2Cc3cc(Oc4ccc5c(c4)CCCC5)ccc3N=C2N)c1)C1CCCCC1 [Compound 233]	no (0)

Task: hey, is % Inhibition (FS) 3 μM for this one >= 50%? NC1=Nc2ccc(Oc3ccccc3)cc2CN1Cc1cccc(NC(=O)C2CCCCC2)c1 [Compound 286]
Output: no (0)

Task: Consider next the molecule COc1cccc(C)c1Oc1ccc2c(c1)CN(Cc1cccc(C(=O)N(C)C3CCCCC3)c1)C(N)=N2 [Compound 468] in the same way.
Output: no (0)

Task: Now consider NC1=Nc2ccc(Oc3ccccc3)cc2CN1C1c2ccccc2-c2c(C(=O)N(C3CCCCC3)C3CCCCC3)cccc21 (stereo not drawn) [Compound 147] and answer again.
Output: no (0)

Task: Param item: CN(C(=O)c1cccc(CN2Cc3cc(Nc4ccc5c(c4)OCO5)ccc3N=C2N)c1)C1CCCCC1 [Compound 441]
Output: no (0)

Task: Queued: C=CCc1cccc(OC)c1Oc1ccc2c(c1)CN(Cc1cccc(C(=O)N(C)C3CCCCC3)c1)C(N)=N2 [Compound 481]
Output: no (0)

Task: Subsequent entry: COc1ccccc1-c1ccc2c(c1)CN(Cc1cccc(C(=O)N(C)C3CCCCC3)c1)C(NC(C)=O)=N2 [Compound 607]
Output: yes (1)

Task: Same for NC1=Nc2ccc(Oc3ccccc3)cc2CN1C1CCN(C(=O)C2CCCCC2)C1 (stereo not drawn) [Compound 119]
Output: no (0)

Task: Can you check CCCC=Cc1ccc2c(c1)CN(CCNC(=O)c1cccc(C#N)c1)C(N)=N2 [Compound 568] next?
Output: no (0)

Task: And the next one, CN(C(=O)c1cccc(CN2Cc3cc(Nc4ccc(N5CCOCC5)cc4)ccc3N=C2N)c1)C1CCCCC1 [Compound 439] ?
Output: no (0)

Task: Next up: CCCCCOc1ccc2c(c1)CN(Cc1cccc(C(=O)N(C)C3CCCCC3)c1)C(N)=N2 [Compound 516]
Output: no (0)

Task: Also NC1=Nc2ccc(Oc3ccccc3)cc2CN1CCNC(=O)c1ccc(-c2ccccc2)cc1 [Compound 195] , if possible.
Output: no (0)

Task: How about CC1CCC(C(=O)NCCN2Cc3cc(Oc4ccccc4)ccc3N=C2N)CC1 (stereo not drawn) [Compound 191] ?
Output: yes (1)

Task: Consider next the molecule CN(C(=O)CCC(C1CCCCC1)N1Cc2cc(Oc3ccccc3)ccc2N=C1N)C1CCOCC1 (stereo not drawn) [Compound 633] in the same way.
Output: yes (1)

Task: Another molecule: CN(C)c1cccc(Oc2ccc3c(c2)CN(Cc2cccc(C(=O)N(C)C4CCCCC4)c2)C(N)=N3)c1 [Compound 479]
Output: yes (1)

Task: Let us now turn to CS(=O)(=O)Nc1ccccc1-c1ccc2c(c1)CN(CCNC(=O)C1CCCCC1)C(N)=N2 [Compound 539]
Output: no (0)
